# TEST TARGET: PARP (Rattus norvegicus)
# Sequence (P27008 whole entry): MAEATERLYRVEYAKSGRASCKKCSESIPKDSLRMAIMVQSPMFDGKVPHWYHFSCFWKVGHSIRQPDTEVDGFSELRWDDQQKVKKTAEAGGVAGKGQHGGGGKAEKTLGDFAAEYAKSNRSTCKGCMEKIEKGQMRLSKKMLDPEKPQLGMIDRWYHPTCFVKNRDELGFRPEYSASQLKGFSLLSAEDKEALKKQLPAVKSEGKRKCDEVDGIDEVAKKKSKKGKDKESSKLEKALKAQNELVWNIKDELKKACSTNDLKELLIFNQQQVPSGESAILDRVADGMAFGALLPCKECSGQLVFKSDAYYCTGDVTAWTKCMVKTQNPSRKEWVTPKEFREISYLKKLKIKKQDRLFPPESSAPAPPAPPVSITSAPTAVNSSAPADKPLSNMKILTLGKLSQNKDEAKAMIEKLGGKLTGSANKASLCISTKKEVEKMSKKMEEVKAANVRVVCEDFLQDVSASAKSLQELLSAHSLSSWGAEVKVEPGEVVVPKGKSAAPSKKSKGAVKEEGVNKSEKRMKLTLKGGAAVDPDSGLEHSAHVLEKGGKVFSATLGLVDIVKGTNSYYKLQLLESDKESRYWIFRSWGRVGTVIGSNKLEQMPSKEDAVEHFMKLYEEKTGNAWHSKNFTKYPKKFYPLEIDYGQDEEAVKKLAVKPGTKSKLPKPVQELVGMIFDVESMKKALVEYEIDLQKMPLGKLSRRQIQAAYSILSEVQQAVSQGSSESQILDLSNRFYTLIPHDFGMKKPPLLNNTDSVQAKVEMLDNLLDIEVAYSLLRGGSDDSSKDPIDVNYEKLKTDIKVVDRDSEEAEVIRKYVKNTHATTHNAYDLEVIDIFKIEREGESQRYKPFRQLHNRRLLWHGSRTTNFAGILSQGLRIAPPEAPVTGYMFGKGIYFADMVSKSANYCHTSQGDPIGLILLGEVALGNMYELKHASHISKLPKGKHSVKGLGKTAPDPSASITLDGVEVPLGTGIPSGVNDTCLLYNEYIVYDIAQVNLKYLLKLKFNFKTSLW
READOUT: pIC50
In textbook form, pIC50 equals minus log to base ten of the concentration in mol/L.

Give recorded pIC50 with PARP (Rattus norvegicus) for the following molecule: COCC=C1CSCc2c1nc(C)[nH]c2=O
6.36
